tested on: BxPC3 (pancreatic cancer); assay: ATP level assay (CellTiter-Glo), percent of control; type: cell-based; conditions: compound 100 uM + rotenone (approximately 1.25 μM), two hour incubation
measurementLabel: POC (percent of control) BxPC3

Here is how some molecules turned out for POC (percent of control) BxPC3.
Please report the measured POC (percent of control) BxPC3 for `Cc1ccc(S(=O)(=O)NCc2c[nH]c3cccc(Br)c23)cc1`
36.5% of control

Please report the measured POC (percent of control) BxPC3 for `Cc1cccc2[nH]cc(CNS(=O)(=O)c3ccc(Cl)cc3)c12`
45.7% of control

Provide reported POC (percent of control) BxPC3 for each item, in the same order as listed.
1. Cc1cccc2c(CNS(=O)(=O)c3ccc(Cl)cc3)c[nH]c12
2. Cc1ccc(S(=O)(=O)NCc2c[nH]c3ccccc23)cc1
3. Cc1ccc(S(=O)(=O)NCc2nccs2)cc1
4. Cc1ccc(S(=O)(=O)NCc2ccc3c(cnn3C)c2)cc1
5. Cc1cccc2c(CNS(=O)(=O)c3ccccc3)c[nH]c12
6. Cc1ccc(S(=O)(=O)NCc2ccc3ncccc3c2)cc1

["44.6% of control", "86.6% of control", "107.2% of control", "118.5% of control", "69.7% of control", "70.8% of control"]

Provide reported POC (percent of control) BxPC3 for each item, in the same order as listed.
1. Cn1cc(CNS(=O)(=O)c2ccc(Cl)cc2)c2ccccc21
2. O=S(=O)(NCc1cncnc1)c1ccccc1
3. Cc1ccc(S(=O)(=O)NCc2coc(C)n2)cc1
4. O=S(=O)(NCc1c[nH]c2cccc(Br)c12)c1ccc(Cl)cc1
5. Cn1cc(CNS(=O)(=O)c2ccc(Cl)cc2)cn1
6. Cn1ncc2cc(CNS(=O)(=O)c3ccc(Cl)cc3)ccc21

["52.7% of control", "88.9% of control", "114.8% of control", "15.8% of control", "78% of control", "54.4% of control"]

Provide reported POC (percent of control) BxPC3 for each item, in the same order as listed.
1. COc1ccc(S(=O)(=O)NCc2c[nH]c3ccccc23)cc1
2. COc1ncccc1CNS(=O)(=O)c1ccc(C)cc1
3. O=S(=O)(NCc1ccco1)c1ccc(Cl)cc1
4. CS(=O)(=O)NCc1c[nH]c2ccccc12
5. Cc1ccc(S(=O)(=O)NCc2cscn2)cc1
6. O=S(=O)(NCc1c[nH]c2ccccc12)c1ccc(Cl)cc1
7. O=S(=O)(NCc1c[nH]c2ccccc12)c1ccc(C(F)(F)F)cc1

78.5% of control
61% of control
94.8% of control
88.8% of control
75.7% of control
86.4% of control
38.6% of control

---

tested on: H293 (kidney cancer); assay: ATP level assay (CellTiter-Glo), percent of control; type: cell-based; details: compound 100 uM + rotenone (approximately 1.25 μM), two hour incubation
Task for the reader: assign each of the following molecules its reported POC (percent of control) H293.

Please report the measured POC (percent of control) H293 for `O=S(=O)(NCc1c[nH]c2cccc(Br)c12)c1ccc(Cl)cc1`
27.3% of control

Provide reported POC (percent of control) H293 for each item, in the same order as listed.
1. Cn1cc(CNS(=O)(=O)c2ccc(Cl)cc2)c2ccccc21
2. Cn1cc(CNS(=O)(=O)c2ccc(Cl)cc2)cn1
3. COc1ccc(S(=O)(=O)NCc2c[nH]c3ccccc23)cc1
4. O=S(=O)(NCc1c[nH]c2ccccc12)c1ccccc1
5. Cn1ncc2cc(CNS(=O)(=O)c3ccc(Cl)cc3)ccc21
6. CC(=O)n1cc(CNS(=O)(=O)c2ccc(Cl)cc2)c2ccccc21
7. Cc1ccc(S(=O)(=O)NCc2c[nH]c3cccc(Br)c23)cc1

1. 50.5% of control
2. 88.3% of control
3. 65.3% of control
4. 69.3% of control
5. 70.8% of control
6. 65.8% of control
7. 41.2% of control

Provide reported POC (percent of control) H293 for each item, in the same order as listed.
1. O=S(=O)(NCc1c[nH]c2ccccc12)c1ccc(C(F)(F)F)cc1
2. O=S(=O)(NCc1cncnc1)c1ccc(Cl)cc1

["47.6% of control", "82.4% of control"]

---

Task for the reader: assign each of the following compounds its reported POC (percent of control) MDA-MB.
test system: MDA-MB (breast cancer); test: ATP level assay (CellTiter-Glo), percent of control; assay type: cell-based; settings: compound 100 uM + rotenone (approximately 1.25 μM), two hour incubation

Here is how some compounds turned out for POC (percent of control) MDA-MB.
Please report the measured POC (percent of control) MDA-MB for `Cc1ccc(S(=O)(=O)NCc2nccs2)cc1`
112% of control

Please report the measured POC (percent of control) MDA-MB for `CS(=O)(=O)NCc1c[nH]c2ccccc12`
79.2% of control

Please report the measured POC (percent of control) MDA-MB for `Cc1ccc(S(=O)(=O)NCc2ccc3ncccc3c2)cc1`
87.1% of control

Provide reported POC (percent of control) MDA-MB for each item, in the same order as listed.
1. Cc1cccc2c(CNS(=O)(=O)c3ccc(Cl)cc3)c[nH]c12
2. O=S(=O)(NCc1cscn1)c1ccc(Cl)cc1

["78.1% of control", "100% of control"]

---

Task for the reader: assign each of the following compounds its reported POC (percent of control) H293.
tested on: H293 (kidney cancer); assay: ATP level assay (CellTiter-Glo), percent of control; type: cell-based; details: compound 100 uM + rotenone (approximately 1.25 μM), two hour incubation

Here is how some compounds turned out for POC (percent of control) H293.
Please report the measured POC (percent of control) H293 for `CS(=O)(=O)NCc1c[nH]c2ccccc12`
72% of control

Please report the measured POC (percent of control) H293 for `O=S(=O)(NCc1cncnc1)c1ccccc1`
84.4% of control

Please report the measured POC (percent of control) H293 for `O=S(=O)(NCc1cscn1)c1ccc(Cl)cc1`
67.4% of control

Provide reported POC (percent of control) H293 for each item, in the same order as listed.
1. Cc1ccc(S(=O)(=O)NCc2ccc3c(cnn3C)c2)cc1
2. Cc1ccc(S(=O)(=O)NCc2nccs2)cc1
3. Cc1cccc2[nH]cc(CNS(=O)(=O)c3ccccc3)c12
4. O=S(=O)(NCc1c[nH]c2ccccc12)c1ccc(Cl)cc1
5. Cc1ccc(S(=O)(=O)NCc2nn(C)c3ccccc23)cc1
6. Cc1ccc(S(=O)(=O)NCc2coc(C)n2)cc1

["88.5% of control", "79.1% of control", "65.3% of control", "47.6% of control", "87.1% of control", "87% of control"]

Please report the measured POC (percent of control) H293 for `O=S(=O)(NCc1ccco1)c1ccc(Cl)cc1`
69.4% of control

---

system: MCF7 (breast cancer); test: ATP level assay (CellTiter-Glo), percent of control; format: cell-based; settings: Homo sapiens, MCF7, 2 h; compound alone, 100 uM, two hour incubation, control DMSO; read-out: POC (percent of control) MCF7
measurementLabel: activity at 100 µM (%)
Give bare numbers, in %.

Here is how some compounds turned out for activity at 100 µM.
Please report the measured activity at 100 µM for `Cc1ccc(S(=O)(=O)NCc2nn(C)c3ccccc23)cc1`
140

Please report the measured activity at 100 µM for `O=S(=O)(NCc1cscn1)c1ccc(Cl)cc1`
110

Please report the measured activity at 100 µM for `Cc1ccc(S(=O)(=O)NCc2nccs2)cc1`
134

Provide reported activity at 100 µM for each item, in the same order as listed.
1. Cc1cccc2c(CNS(=O)(=O)c3ccccc3)c[nH]c12
2. COc1ccc(S(=O)(=O)NCc2c[nH]c3ccccc23)cc1
3. O=S(=O)(NCc1c[nH]c2ccccc12)c1ccc(Cl)cc1

1. 72
2. 96.3
3. 70.1

Provide reported activity at 100 µM for each item, in the same order as listed.
1. Cc1ccc(S(=O)(=O)NCc2cscn2)cc1
2. Cn1cc(CNS(=O)(=O)c2ccc(Cl)cc2)cn1
3. CS(=O)(=O)NCc1c[nH]c2ccccc12
4. Cc1cccc2c(CNS(=O)(=O)c3ccc(Cl)cc3)c[nH]c12

1. 145
2. 118
3. 114
4. 79

---

system: HDF (normal cells); assay: ATP level assay (CellTiter-Glo), percent of control; assay type: cell-based; details: compound 100 uM + rotenone (approximately 1.25 μM), two hour incubation
Task for the reader: assign each of the following compounds its reported POC (percent of control) HDF.

Here is how some compounds turned out for POC (percent of control) HDF.
Please report the measured POC (percent of control) HDF for `COc1ncccc1CNS(=O)(=O)c1ccc(C)cc1`
70.4% of control

Please report the measured POC (percent of control) HDF for `O=S(=O)(NCc1c[nH]c2ccccc12)c1ccccc1`
91.9% of control

Please report the measured POC (percent of control) HDF for `Cc1ccc(S(=O)(=O)NCc2nn(C)c3ccccc23)cc1`
88.3% of control

Please report the measured POC (percent of control) HDF for `Cc1ccc(S(=O)(=O)NCc2c[nH]c3ccccc23)cc1`
107.7% of control

Then this compound:
Please report the measured POC (percent of control) HDF for `O=[N+]([O-])c1cccc(S(=O)(=O)NCc2c[nH]c3ccccc23)c1`
95.5% of control

These data points were gathered from patent US20230266302A1.
